Origin of measurements: ChEMBL document CHEMBL1132154

# system-tested: Histamine H3 receptor (Mus musculus)
# protocol: In vivo intrinsic activity against histamine H3 receptor in mice after peroral administration
# Assay type: organism-based
quantity-name: Intrinsic activity

# count of solved cases: 4
cpd-smiles	Intrinsic activity
CC(C)(C)NC(=O)OCCCc1c[nH]cn1.O=CC(=O)/C(O)=C/O	0.7
CC(C)CCCOCCCc1c[nH]cn1	0.6
CC(C)(C)CCOCCCc1c[nH]cn1	1
N=C(N)SCCc1c[nH]cn1	1

I. CC(C)CCOCCCc1c[nH]cn1
II. CC(C)(C)CNC(=O)OCCCc1c[nH]cn1.O.O=C(O)C(=O)O
III. CCC(C)(C)NC(=O)OCCCc1c[nH]cn1
Given 3 molecules, produce a descending ranking by Intrinsic activity. Answer by listing the labels in the requested order.
I, II, III

* * *

# system-tested: UniProt Q9JI35
# Sequence (Q9JI35 whole entry): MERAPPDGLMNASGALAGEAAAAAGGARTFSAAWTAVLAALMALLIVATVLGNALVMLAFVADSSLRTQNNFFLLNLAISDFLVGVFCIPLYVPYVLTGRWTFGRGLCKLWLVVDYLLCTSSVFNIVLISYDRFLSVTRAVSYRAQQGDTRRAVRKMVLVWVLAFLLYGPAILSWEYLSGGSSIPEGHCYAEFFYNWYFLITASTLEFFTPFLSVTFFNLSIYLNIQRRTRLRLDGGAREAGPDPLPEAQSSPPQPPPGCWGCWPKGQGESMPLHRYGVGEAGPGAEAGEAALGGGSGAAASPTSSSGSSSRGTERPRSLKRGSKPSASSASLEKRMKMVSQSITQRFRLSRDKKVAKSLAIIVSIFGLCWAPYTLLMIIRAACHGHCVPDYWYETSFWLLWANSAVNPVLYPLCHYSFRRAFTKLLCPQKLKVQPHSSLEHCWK
# protocol: Binding affinity for guinea pig ileum histamine H3 receptor
# Assay type: tissue-based
quantity-name: Kb (nM)

Solved entries (count: 4):
cpd-smiles	system-tested	uom	Kb
CC(C)CCOCCCc1c[nH]cn1	UniProt Q9JI35	nM	93
CCC(C)(C)NC(=O)OCCCc1c[nH]cn1	UniProt Q9JI35	nM	46
CC(C)(C)NC(=O)OCCCc1c[nH]cn1.O=CC(=O)/C(O)=C/O	UniProt Q9JI35	nM	60
CC(C)(C)CNC(=O)OCCCc1c[nH]cn1.O.O=C(O)C(=O)O	UniProt Q9JI35	nM	40

I. CC(C)COCCCc1c[nH]cn1
II. CC(C)CCCOCCCc1c[nH]cn1
Return label of the item with the larger Kb. Candidates: I , II . Your answer should be the label of the entry you select.
I

1. CC(C)(C)CCOCCCc1c[nH]cn1
2. CC(C)NC(=O)OCCCc1c[nH]cn1.O=CC(=O)/C(O)=C/O
Between the two listed entries 1 and 2 , which has its Kb at the higher number? Pick one; state its label.
2

P. CC(C)(C)CCNC(=O)OCCCc1c[nH]cn1.O=CC(=O)/C(O)=C/O
Q. N=C(N)SCCc1c[nH]cn1
I would appreciate it if you could say which entry, P or Q , has the lower Kb value. Pick one; state its label.
Q
(Q: 6.6 nM, P: 30 nM)

a. CC(C)CNC(=O)OCCCc1c[nH]cn1
b. CC(C)(C)CC(C)(C)NC(=O)OCCCc1c[nH]cn1
Looking at recorded values for Kb, does a or b come in lower? Answer = label.
b

* * *

# system-tested: Histamine H3 receptor (Rattus norvegicus)
# protocol: Antagonist activity against histamine H3 receptor on synaptosomes of rat cerebral cortex
# Format: functional, subcellular, Brain
pKi: −log10 of the molar value.
quantity-name: pKi

cpd-smiles	system-tested	measured-result
CC(C)(C)CC(C)(C)NC(=O)OCCCc1c[nH]cn1	Histamine H3 receptor (Rattus norvegicus)	7.38
CC(C)NC(=O)OCCCc1c[nH]cn1.O=CC(=O)/C(O)=C/O	Histamine H3 receptor (Rattus norvegicus)	7.09

a. CC(C)COCCCc1c[nH]cn1
b. CC(C)(C)CCOCCCc1c[nH]cn1
Which value of pKi is greater, the one for a or the one for b ? The response must carry the label of the picked entry.
b
(b: 8.00, a: 6.86)

* * *

# system-tested: Histamine H3 receptor (Rattus norvegicus, UniProt Q9QYN8)
# Sequence (Q9QYN8 whole entry): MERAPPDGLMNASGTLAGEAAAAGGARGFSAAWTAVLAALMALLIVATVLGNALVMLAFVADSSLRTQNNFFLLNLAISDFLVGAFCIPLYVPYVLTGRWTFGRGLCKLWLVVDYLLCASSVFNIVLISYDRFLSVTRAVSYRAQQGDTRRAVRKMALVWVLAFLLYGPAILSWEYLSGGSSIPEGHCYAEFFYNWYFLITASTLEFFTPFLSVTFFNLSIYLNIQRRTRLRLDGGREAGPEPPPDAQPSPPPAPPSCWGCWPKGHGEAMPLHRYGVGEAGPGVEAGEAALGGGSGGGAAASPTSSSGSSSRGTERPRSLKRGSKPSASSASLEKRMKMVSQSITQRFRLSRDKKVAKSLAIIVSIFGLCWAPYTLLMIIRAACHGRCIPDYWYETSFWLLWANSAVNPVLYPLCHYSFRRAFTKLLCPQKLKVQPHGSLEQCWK
# protocol: In vitro intrinsic activity against histamine H3 receptor from synaptosomes of rat cerebral cortex
# Type: subcellular, Brain
quantity-name: Intrinsic activity

cpd-smiles	Intrinsic activity
CC(C)CCCOCCCc1c[nH]cn1	0.25

I. CC(C)CCOCCCc1c[nH]cn1
II. CC(C)(C)CCOCCCc1c[nH]cn1
III. CC(C)(C)CNC(=O)OCCCc1c[nH]cn1.O.O=C(O)C(=O)O
Sequence the entries by Intrinsic activity, beginning with the highest number. Put the labels in the requested order and list them out.
II, I, III
